Below, each entry is listed with its recorded Residual activity CK1.
test system: CK1; assay: Protein kinase activity in the presence of compound; assay type: biochemical; conditions: 10 μM compound; percentage of the activity measured in the absence of inhibitors

molecule	Residual activity CK1, %
CC1=C(C2=C(C)C(=O)c3c(c(O)c(O)c(O)c3C(C)C)C2=O)C(=O)c2c(O)c(O)c(O)c(C(C)C)c2C1=O [Compound (4)]	88
CC1=C(C2=C(C)C(=O)c3c(c(C=O)c(O)c(O)c3C(C)C)C2=O)C(=O)c2c(C=O)c(O)c(O)c(C(C)C)c2C1=O [Gossypolone, gossypolone, reference compound]	64
Cc1cc2c(C(C)C)c(O)c(O)c(C=O)c2c(O)c1-c1c(C)cc2c(C(C)C)c(O)c(O)c(C=O)c2c1O [Gossypol, gossypol]	89
CC1=C(C2=C(C)C(=O)c3c(c(CSCCO)c(O)c(O)c3C(C)C)C2=O)C(=O)c2c(CSCCO)c(O)c(O)c(C(C)C)c2C1=O [Compound (14)]	77

----------
test system: p70 S6K; experiment: Protein kinase activity in the presence of compound; assay type: biochemical; settings: 10 μM compound; percentage of the activity measured in the absence of inhibitors

compound	measured_target	Residual activity p70 S6K [%]
CC1=C(C2=C(C)C(=O)c3c(c(C=O)c(O)c(O)c3C(C)C)C2=O)C(=O)c2c(C=O)c(O)c(O)c(C(C)C)c2C1=O [Gossypolone, gossypolone, reference compound]	p70 S6K	35
CC1=C(C2=C(C)C(=O)c3c(c(CSCCO)c(O)c(O)c3C(C)C)C2=O)C(=O)c2c(CSCCO)c(O)c(O)c(C(C)C)c2C1=O [Compound (14)]	p70 S6K	52
CC1=C(C2=C(C)C(=O)c3c(c(O)c(O)c(O)c3C(C)C)C2=O)C(=O)c2c(O)c(O)c(O)c(C(C)C)c2C1=O [Compound (4)]	p70 S6K	34
Cc1cc2c(C(C)C)c(O)c(O)c(C=O)c2c(O)c1-c1c(C)cc2c(C(C)C)c(O)c(O)c(C=O)c2c1O [Gossypol, gossypol]	p70 S6K	110

----------
system: AMPK; test: Protein kinase activity in the presence of compound; assay type: biochemical; conditions: 10 μM compound; percentage of the activity measured in the absence of inhibitors

compound	measured_target	Residual activity AMPK
CC1=C(C2=C(C)C(=O)c3c(c(C=O)c(O)c(O)c3C(C)C)C2=O)C(=O)c2c(C=O)c(O)c(O)c(C(C)C)c2C1=O [Gossypolone, gossypolone, reference compound]	AMPK	66%
CC1=C(C2=C(C)C(=O)c3c(c(O)c(O)c(O)c3C(C)C)C2=O)C(=O)c2c(O)c(O)c(O)c(C(C)C)c2C1=O [Compound (4)]	AMPK	61%
CC1=C(C2=C(C)C(=O)c3c(c(CSCCO)c(O)c(O)c3C(C)C)C2=O)C(=O)c2c(CSCCO)c(O)c(O)c(C(C)C)c2C1=O [Compound (14)]	AMPK	70%
Cc1cc2c(C(C)C)c(O)c(O)c(C=O)c2c(O)c1-c1c(C)cc2c(C(C)C)c(O)c(O)c(C=O)c2c1O [Gossypol, gossypol]	AMPK	72%

Where do the numbers come from? From patent US7851510B2.
